- tested-on: BACE1 (Homo sapiens (Human))
- protocol-summary: BACE1 cell assay
- Assay type: cell-based
- condition-set: read-out: IC50 IP (μM) BACE1 Cell
parameter: log10(IC50) (log10 of the value in µM)
// do not treat as linear: log10 of IC50, unit µM

Below, each entry is followed by its recorded log10(IC50) result.
molecule	tested-on	log10(IC50)
C[C@H]1CCN1C(=O)[C@]12C[C@H]1[C@@](C)(c1cc(/C=C(\F)c3ccc(Cl)cn3)ccc1F)N=C(N)S2 (single isomer, unassigned)	BACE1 (Homo sapiens (Human))	-2.39
COC[C@]12C[C@H]1[C@@](C)(c1cc(/C=C(\F)c3cnc(C#N)cn3)ccc1F)N=C(N)S2	BACE1 (Homo sapiens (Human))	-2.20
C#Cc1cnc(/C(F)=C/c2ccc(F)c([C@@]3(C)N=C(N)S[C@@]4(C(=O)N5CCOCC5)C[C@H]43)c2)cn1	BACE1 (Homo sapiens (Human))	-1.40

Would you mind listing log10(IC50) for each of the following molecules?
1. CC1CCN(C(=O)[C@]23C[C@H]2[C@@](C)(c2cc(/C=C(\F)c4ccc(C#N)cn4)ccc2F)N=C(N)S3)CC1
2. CNC(=O)[C@]12C[C@H]1[C@@](C)(c1cc(/C=C(\F)c3ccc(OC(F)(F)F)cn3)ccc1F)N=C(N)S2
3. COC[C@]12C[C@H]1[C@@](C)(c1cc(/C=C(\F)c3cnc(OCC(F)(F)F)cn3)ccc1F)N=C(N)S2
4. C#CCOc1cnc(/C(F)=C/c2cnc(F)c([C@@]3(C)N=C(N)S[C@@]4(C(=O)N5[C@H]6COC[C@H]5COC6)C[C@H]43)c2)cn1
5. C[C@]1(c2cc(/C=C(\F)c3cnc(C#N)cn3)ccc2F)N=C(N)S[C@@]2(C(=O)N3CC[C@H](F)C3)C[C@H]21
6. COC[C@]12C[C@H]1[C@@](C)(c1cc(/C=C(\F)c3cnc(OCC(C)C)cn3)ccc1F)N=C(N)S2
7. C[C@]1(c2cc(/C=C(\F)c3ccc(C#N)cn3)cnc2F)N=C(N)S[C@@]2(C(=O)N3CC[C@H](F)C3)C[C@H]21

result:
1. -2.52
2. -1.60
3. -0.25
4. -2.46
5. -3.00
6. 0.63
7. -2.15

Hey, can you go through the list below and give me log10(IC50) for every item?
1. CN(C)C(=O)[C@]12C[C@H]1[C@@](C)(c1cc(/C=C(\F)c3ccc(C#N)s3)ccc1F)N=C(N)S2
2. C[C@]1(c2cc(/C=C(\F)c3ccc(C#N)cn3)ccc2F)N=C(N)S[C@@]2(C(=O)N3Cc4ccccc4C3)C[C@H]21 [Example 129, bis(2,2,2-trifluoroacetate)]

result:
-1.66
-1.78

query: Give its log10(IC50) value. Item: C#CCOc1cnc(/C(F)=C/c2ccc(F)c([C@@]3(C)N=C(N)S[C@@]4(C#N)C[C@H]43)c2)cn1
result: -1.76

---

- tested-on: Cathepsin D (CatD) (Homo sapiens (Human), UniProt P07339)
- Sequence (P07339 65-412, species assumed): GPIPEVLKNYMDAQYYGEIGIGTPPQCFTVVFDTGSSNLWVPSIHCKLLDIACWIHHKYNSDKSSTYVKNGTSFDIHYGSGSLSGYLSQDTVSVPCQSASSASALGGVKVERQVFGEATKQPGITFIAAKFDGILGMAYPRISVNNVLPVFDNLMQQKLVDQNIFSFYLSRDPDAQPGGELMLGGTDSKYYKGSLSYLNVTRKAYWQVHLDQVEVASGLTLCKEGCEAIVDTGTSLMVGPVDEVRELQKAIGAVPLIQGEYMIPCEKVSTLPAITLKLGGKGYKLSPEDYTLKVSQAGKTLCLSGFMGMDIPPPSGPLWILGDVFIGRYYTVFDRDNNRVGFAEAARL
- protocol-summary: CatD assay
- Assay type: biochemical
- condition-set: read-out: IC50 IP (μM) CatD
parameter: log10 of IC50 (log10 of the value in µM)
All values: log10 IC50 [µM].

Your task in this section: give log10 of IC50 for each listed record.
1. CN(C)C(=O)[C@]12C[C@H]1[C@@](C)(c1cc(/C=C(\F)c3ncc(C#N)cn3)ccc1F)N=C(N)S2 [Example 170]
2. C#CCOc1cnc(/C(F)=C/c2ccc(F)c([C@@]3(C)N=C(N)S[C@@]4(c5ncc(C)o5)C[C@@H]34)c2)cn1 [Example 345]
3. C[C@]1(c2cc(/C=C(\F)c3ccc(C#N)cn3)ccc2F)N=C(N)S[C@@]2(C(=O)N3CC[C@@H]4CCCC[C@H]4C3)C[C@H]21 [Example 135]
4. COC[C@]12C[C@H]1[C@@](C)(c1cc(/C=C(\F)c3cnc(OCC4CC4)cn3)ccc1F)N=C(N)S2 [Example 270]
5. C[C@@]1(O)CCN(C(=O)[C@]23C[C@H]2[C@@](C)(c2cc(/C=C(\F)c4ccc(C#N)cn4)ccc2F)N=C(N)S3)C1 (single isomer, unassigned) [Example 310]

result:
3.23
1.95
0.74
2.32
2.64

query: Would you kindly share the measured log10 of IC50 for C#CCOc1cnc(/C(F)=C/c2cnc(F)c([C@@]3(C)N=C(N)S[C@@]4(C(=O)N5CC[C@@H](F)C5)C[C@H]43)c2)cn1 [Example 295] ?
result: 1.77

---

- tested-on: BACE1 (Homo sapiens (Human), UniProt P56817)
- Sequence (P56817 46-501, species assumed): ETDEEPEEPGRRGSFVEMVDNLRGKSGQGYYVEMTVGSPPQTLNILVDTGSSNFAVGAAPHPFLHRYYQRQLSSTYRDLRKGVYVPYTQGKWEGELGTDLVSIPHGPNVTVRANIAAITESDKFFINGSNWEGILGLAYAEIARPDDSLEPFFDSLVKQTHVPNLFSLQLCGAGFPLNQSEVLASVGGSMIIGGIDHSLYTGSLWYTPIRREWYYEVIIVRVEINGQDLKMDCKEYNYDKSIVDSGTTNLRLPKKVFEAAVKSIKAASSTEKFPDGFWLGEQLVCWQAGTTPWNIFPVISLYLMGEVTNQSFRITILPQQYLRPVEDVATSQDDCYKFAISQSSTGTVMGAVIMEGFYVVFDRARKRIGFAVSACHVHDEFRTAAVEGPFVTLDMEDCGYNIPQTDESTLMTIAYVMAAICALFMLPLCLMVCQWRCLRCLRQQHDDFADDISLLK
- protocol-summary: BACE1 cell assay
- Assay type: cell-based
- condition-set: read-out: IC50 IP (μM) BACE1 Cell
Please provide measured IC50 for the entries that follow.
Give bare numbers, in µM.

Solved entries:
compound	display-unit	val
C#CCOc1cnc(/C(F)=C/c2ccc(F)c([C@@]3(C)N=C(N)S[C@]4(CO)[C@H]3C4(F)F)c2)cn1	µM	0.0636
CC#CCOc1cnc(/C(F)=C/c2ccc(F)c([C@@]3(C)N=C(N)S[C@@]4(C(N)=O)C[C@H]43)c2)cn1	µM	0.0039
CN(C)C(=O)[C@]12C[C@H]1[C@@](C)(c1cc(/C=C(\F)c3cnc(OCC4CC4(F)F)cn3)ccc1F)N=C(N)S2 (stereo partly drawn)	µM	0.262
CN(C)C(=O)[C@]12C[C@H]1[C@@](C)(c1cc(/C=C(\F)c3cnc(OCC(F)F)cn3)ccc1F)N=C(N)S2	µM	0.039
C[C@]1(c2cc(/C=C(\F)c3ccc(C#N)cn3)cnc2F)N=C(N)S[C@@]2(C(=O)N3CCC(F)(F)C3)C[C@H]21	µM	0.0309

Continue with the compound presented below.
query: # returns recorded IC50 (system: BACE1 (Homo sapiens (Human), UniProt P56817)) for C[C@]1(c2cc(/C=C(\F)c3ccc(C#CC4CC4)cn3)ccc2F)N=C(N)S[C@@]2(C(=O)N3CCOCC3)C[C@H]21
result: 0.155

---

- tested-on: Cathepsin D (CatD) (Homo sapiens (Human), UniProt P07339)
- protocol-summary: CatD assay
- Assay type: biochemical
- condition-set: read-out: IC50 IP (μM) CatD
For each of the molecules below, state its log10 IC50.
Recorded IC50 (log10, µM)

For orientation, consider the following solved cases.
molecule	val
COC[C@H]1COCCN1C(=O)[C@]12C[C@H]1[C@@](C)(c1cc(/C=C(\F)c3ccc(C#N)cn3)ccc1F)N=C(N)S2 [Example 328]	1.61
CN(C)C(=O)[C@]12C[C@H]1[C@@](C)(c1cc(/C=C(\F)c3cnc(OCC4COC4)cn3)ccc1F)N=C(N)S2 [Example 212]	2.31
CC#CCOc1cnc(/C(F)=C/c2ccc(F)c([C@@]3(C)N=C(N)S[C@@]4(C#N)C[C@H]43)c2)cn1 [Example 244]	2.18
CN(C)C(=O)[C@]12C[C@H]1[C@@](C)(c1cc(/C=C(\F)c3cc4nccnc4cn3)ccc1F)N=C(N)S2 [Example 247]	3.08
Cc1cc(COc2cnc(/C(F)=C/c3ccc(F)c([C@@]4(C)N=C(N)S[C@@]5(C(=O)N(C)C)C[C@H]54)c3)cn2)on1 [Example 218]	2.19

Give me log10 IC50 for each of these molecules, listed below.
1. COC(=O)[C@]12C[C@H]1[C@@](C)(c1cc(/C=C(\F)c3cnc(Br)cn3)ccc1F)N=C(N)S2 [Example 148]
2. C[C@]1(c2cc(/C=C(\F)c3ccc(Cl)cn3)ccc2F)N=C(N)S[C@@]2(C(=O)N3CCC3)C[C@H]21 [Example 112]
3. COC[C@]12C[C@H]1[C@@](C)(c1cc(/C=C(\F)c3cnc(OCC4COC4)cn3)ccc1F)N=C(N)S2 [Example 272]
4. C#CCOc1cnc(/C(F)=C/c2cnc(F)c([C@@]3(C)N=C(N)S[C@@]4(C(=O)N(C)C)C[C@H]43)c2)cn1 [Example 287]
5. C#Cc1ccc(/C(F)=C/c2ccc(F)c([C@@]3(C)N=C(N)S[C@@]4(C(=O)N(C)C)C[C@H]43)c2)nc1 [Example 110]
6. C#CCOc1cnc(/C(F)=C/c2cnc(F)c([C@@]3(C)N=C(N)S[C@@]4(C(=O)OC)C[C@H]43)c2)cn1 [Example 294]
7. C[C@@H]1CN(C(=O)[C@]23C[C@H]2[C@@](C)(c2cc(/C=C(\F)c4ccc(C#N)cn4)ccc2F)N=C(N)S3)[C@H](C)CO1 [Example 330]

result:
2.36
1.99
2.94
2.31
2.61
2.60
2.14

query: Form field: log10 IC50 recorded for C#CCOc1cnc(/C(F)=C/c2cnc(F)c([C@@]3(C)N=C(N)S[C@@]4(C(=O)O)C[C@H]43)c2)cn1 [Example 285] with Cathepsin D (CatD) (Homo sapiens (Human), UniProt P07339) (enter value)
result: 2.50

Hey, just so you know, these numbers are from patent US10246429B2.
